# Tested on: MDA-MB-231/ATCC
# assay: NCI-60 cell line panel: MDA-MB-231/ATCC
# Assay type: cell-based
# setup conditions: Homo sapiens, Breast Cancer
IC50 strictly under 1000 nM means Met; at 1000 nM or over means Not met.

Observe how each entry below is paired with its result.
compound	classification
CNC(=O)c1cc(Oc2ccc(NC(=O)Nc3ccc(Cl)c(C(F)(F)F)c3)cc2)ccn1 [Sorafenib, reference compound]	Not met
CCN1CCN(c2ccc(NC(=O)Nc3ccc(-c4cc(C(=O)NC(C)C)c5ncccc5n4)cc3)cc2C(F)(F)F)CC1 [Compound 13f]	Met
CC(C)NC(=O)c1cc(-c2ccc(NC(=O)Nc3ccc(N4CCN(C)CC4)c(C(F)(F)F)c3)cc2)nc2cccnc12 [Compound 13e]	Met
CCN1CCN(c2ccc(NC(=O)Nc3ccc(-c4cc(C(=O)NC)c5ncccc5n4)cc3)cc2C(F)(F)F)CC1 [Compound 13c]	Not met

Let us examine a further case.
Find out if reported IC50 for CNC(=O)c1cc(-c2ccc(NC(=O)Nc3ccc(N4CCN(C)CC4)c(C(F)(F)F)c3)cc2)nc2cccnc12 [Compound 13b] is less than 1000 nM
Not met
